assayed.target: HIV-1 protease (Q7S mutant form) (Human immunodeficiency virus type 1 group M subtype B, UniProt P04585, Q495S)
Construct: made in house
test.summary: HIV-1 Protease RET assay
Type: biochemical
measurement.setup: Ave. Ki (nM), RET assay, Q7S enzyme, Morrison tight binding fit
The threshold is 5 nM. Values of Ki beneath it are tagged true; values meeting or exceeding it are tagged false.

* C/C=C(\C)CNC(=O)[C@H]1N(C(=O)[C@@H](O)[C@H](Cc2ccccc2)NC(=O)c2cccc(O)c2C)CSC12CCCC2 | true
* Cc1ccccc1CNC(=O)[C@H]1N(C(=O)[C@@H](O)[C@H](Cc2ccccc2)NC(=O)NC(C)C)CSC1(C)C | true
* Cc1ccccc1CNC(=O)[C@H]1N(C(=O)C(O)C(Cc2ccccc2)NC(=O)NCc2ccc(Br)cc2)CSC1(C)C (stereo in doubt) | false
* COc1ccccc1CNC(=O)NC(Cc1ccccc1)C(O)C(=O)N1CSC(C)(C)[C@H]1C(=O)NCc1ccccc1C (stereo in doubt) | false
* CCCNC(=O)[C@H]1N(C(=O)[C@@H](O)[C@H](Cc2ccccc2)NC(=O)c2cc(C)cc(O)c2C)CC(F)(F)C1(C)C | true
* Cc1ccccc1CNC(=O)[C@H]1N(C(=O)[C@@H](O)[C@H](Cc2ccccc2)NC(=O)c2cccc3c2CCN3)CSC1(C)C | true

Query block: Does this molecule meet the criterion Ki < 5 nM? Cc1ccc(CNC(=O)NC(Cc2ccccc2)C(O)C(=O)N2CSC(C)(C)[C@H]2C(=O)NCc2ccccc2C)c(C)c1 (stereo in doubt)
Result block: false

Query block: Does this molecule meet the criterion Ki < 5 nM? `Cc1c(O)cccc1C(=O)N[C@@H](Cc1ccccc1)[C@H](O)C(=O)N1CC(F)(F)C(C)(C)[C@H]1C(=O)N[C@H]1CCc2ccccc21`
Result block: true

Query block: Does this molecule meet the criterion Ki < 5 nM? `CC1(C)SCN(C(=O)[C@@H](O)[C@H](Cc2ccccc2)NC(=O)c2cccc3[nH]ncc23)[C@@H]1C(=O)NCc1ccco1`
Result block: false

Query block: Does this molecule meet the criterion Ki < 5 nM? `CCCNC(=O)[C@H]1N(C(=O)[C@@H](O)[C@H](Cc2ccccc2)NC(=O)c2cccc(O)c2C)CC(F)(F)C1(C)C`
Result block: true

Query block: Does this molecule meet the criterion Ki < 5 nM? `C#CCNC(=O)[C@H]1N(C(=O)[C@@H](O)[C@H](Cc2ccccc2)NC(=O)c2cccc3[nH]ncc23)CSC1(C)C`
Result block: false

Query block: Does this molecule meet the criterion Ki < 5 nM? `CC1(C)SCN(C(=O)[C@@H](O)[C@H](Cc2ccccc2)NC(=O)c2cccc3c2CCN3)[C@@H]1C(=O)N[C@@H]1C=CCCC1`
Result block: true

Query block: Does this molecule meet the criterion Ki < 5 nM? Cc1c(O)cccc1C(=O)N[C@@H](Cc1ccccc1)[C@H](O)C(=O)N1CSC(C)(C)[C@H]1C(=O)N[C@H]1CCCc2occc21 (stereo in doubt)
Result block: true

Query block: Does this molecule meet the criterion Ki < 5 nM? `C#CCNC(=O)[C@H]1N(C(=O)[C@@H](O)[C@H](Cc2ccccc2)NC(=O)c2cccc(O)c2C)CC(F)(F)C1(C)C`
Result block: true

Query block: Does this molecule meet the criterion Ki < 5 nM? `Cc1c(O)cccc1C(=O)N[C@@H](Cc1ccccc1)[C@H](O)C(=O)N1CSC2(CCCC2)[C@H]1C(=O)N[C@H]1CCCc2ccccc21`
Result block: true

Query block: Does this molecule meet the criterion Ki < 5 nM? `Cc1c(O)cccc1C(=O)N[C@@H](Cc1ccccc1)[C@H](O)C(=O)N1CSC(C)(C)[C@H]1C(=O)NCc1nc2ccccc2[nH]1`
Result block: false

Query block: Does this molecule meet the criterion Ki < 5 nM? `Cc1c(O)cccc1C(=O)N[C@@H](Cc1ccccc1)[C@H](O)C(=O)N1CSC(C)(C)[C@H]1C(=O)NCc1ccncc1`
Result block: true
